target: Phosphatidylinositol 4,5-bisphosphate 3-kinase catalytic subunit alpha isoform (Homo sapiens) (UniProt P42336); settings: at 0.1 µM;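 also: values are mean inhibition figures from the GSK PKIS kinase panel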
Sequence (P42336 whole entry, canonical isoform): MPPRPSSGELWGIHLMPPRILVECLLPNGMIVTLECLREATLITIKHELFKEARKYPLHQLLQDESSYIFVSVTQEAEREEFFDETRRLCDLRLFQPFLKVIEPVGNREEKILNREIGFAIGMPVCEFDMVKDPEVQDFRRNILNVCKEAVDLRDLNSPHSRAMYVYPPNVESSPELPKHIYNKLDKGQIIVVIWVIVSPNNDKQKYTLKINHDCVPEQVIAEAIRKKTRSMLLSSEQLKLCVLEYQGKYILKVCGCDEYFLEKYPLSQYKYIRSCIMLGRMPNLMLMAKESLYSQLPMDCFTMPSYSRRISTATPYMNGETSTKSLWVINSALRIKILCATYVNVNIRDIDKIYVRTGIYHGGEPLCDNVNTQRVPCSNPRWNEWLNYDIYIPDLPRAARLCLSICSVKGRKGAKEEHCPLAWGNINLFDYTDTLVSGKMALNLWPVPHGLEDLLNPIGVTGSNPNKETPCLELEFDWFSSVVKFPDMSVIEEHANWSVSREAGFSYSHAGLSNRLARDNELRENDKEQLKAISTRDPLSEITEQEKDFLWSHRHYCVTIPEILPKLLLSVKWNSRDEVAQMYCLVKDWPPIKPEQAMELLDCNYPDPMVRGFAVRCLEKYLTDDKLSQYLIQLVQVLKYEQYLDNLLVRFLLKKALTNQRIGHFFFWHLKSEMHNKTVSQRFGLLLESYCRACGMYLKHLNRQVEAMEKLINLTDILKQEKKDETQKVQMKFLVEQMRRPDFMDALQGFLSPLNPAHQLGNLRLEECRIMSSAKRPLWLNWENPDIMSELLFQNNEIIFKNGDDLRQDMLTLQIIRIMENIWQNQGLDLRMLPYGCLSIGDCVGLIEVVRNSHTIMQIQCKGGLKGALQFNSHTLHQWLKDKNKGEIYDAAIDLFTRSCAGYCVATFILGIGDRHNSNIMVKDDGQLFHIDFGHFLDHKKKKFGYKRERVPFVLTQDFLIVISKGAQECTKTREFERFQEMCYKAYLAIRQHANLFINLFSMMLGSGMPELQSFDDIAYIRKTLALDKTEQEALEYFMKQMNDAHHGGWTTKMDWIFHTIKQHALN

[
  {
    "molecule": "CCS(=O)(=O)c1ccc(OC)c(Nc2ncc(-c3ccccc3Cl)o2)c1",
    "inhibition": "-0.1%"
  },
  {
    "molecule": "CN(C)CCOc1ccc(-c2cc(-c3ccc4c(c3)CCC4=NO)c(-c3ccncc3)o2)cc1",
    "inhibition": "-0.14%"
  },
  {
    "molecule": "NCc1ccc(-n2c(-c3nonc3N)nc3cnccc32)cc1",
    "inhibition": "4.81%"
  },
  {
    "molecule": "COc1cc(Nc2ncc(-c3ccccc3)o2)cc(OC)c1OC",
    "inhibition": "0.99%"
  },
  {
    "molecule": "NC(=O)c1cc(-c2ccc(F)cc2)cc(-c2ccncc2)c1N",
    "inhibition": "3.84%"
  },
  {
    "molecule": "COc1ccc(-c2ccc3c(NC(=O)C4CC4)n[nH]c3n2)cc1",
    "inhibition": "1.49%"
  },
  {
    "molecule": "COc1cc(C)c(N(C)C(=O)CN(C)C)cc1Nc1nc(Nc2cccc(F)c2C(N)=O)c2cc[nH]c2n1",
    "inhibition": "0.08%"
  },
  {
    "molecule": "Nc1nccc(-c2c(-c3ccc(F)cc3)ncn2C2CCC(O)CC2)n1 (stereo not given)",
    "inhibition": "16.6%"
  },
  {
    "molecule": "c1ccc(Oc2ccc(Nc3ncc(-c4ccccc4)o3)cc2)cc1",
    "inhibition": "4.13%"
  },
  {
    "molecule": "CN(C)c1ccc2c(c1)/C(=C/Nc1ccc(S(N)(=O)=O)cc1)C(=O)N2",
    "inhibition": "0.45%"
  }
]
